Recorded IC50 values for a group of compounds are listed next.
test system: Vaccinia virus; assay: Antiviral activity against Vaccinia virus infected in african green monkey Vero 76 cells assessed as inhibition of virus-induced cytopathic effect after 3 days by microscopic analysis; type: functional, organism-based; conditions: Orthopoxvirus vaccinia, 72 h
API: value field is a number in µM; no unit string.

C[C@@H](O)C[C@H]1C[C@@H](n2cnc3c(N)ncnc32)[C@H](O)[C@@H]1O (mixture of isomers) : 24
C[C@H](O)C[C@H]1C[C@@H](n2cnc3c(N)ncnc32)[C@H](O)[C@@H]1O (mixture of isomers) : 4.8

Proceeding to the next compound to report its IC50.
Data request: Name the recorded IC50 for Nc1ncnc2c1ncn2[C@@H]1C[C@H](CCO)[C@@H](O)[C@H]1O .
Data returned: 4.29
